target-of-assay: T1, FtsZ (purified, C. crescentus) (Caulobacter crescentus, UniProt B8H080 1-508)
T1 construct: FtsZ, Caulobacter crescentus; In the assays it was polymerised with GTP and MgCl2; source: E. coli Rosetta (DE3) pLysS, purified as previously described (Sundararajan et al., 2015)
T1 sequence (looked up): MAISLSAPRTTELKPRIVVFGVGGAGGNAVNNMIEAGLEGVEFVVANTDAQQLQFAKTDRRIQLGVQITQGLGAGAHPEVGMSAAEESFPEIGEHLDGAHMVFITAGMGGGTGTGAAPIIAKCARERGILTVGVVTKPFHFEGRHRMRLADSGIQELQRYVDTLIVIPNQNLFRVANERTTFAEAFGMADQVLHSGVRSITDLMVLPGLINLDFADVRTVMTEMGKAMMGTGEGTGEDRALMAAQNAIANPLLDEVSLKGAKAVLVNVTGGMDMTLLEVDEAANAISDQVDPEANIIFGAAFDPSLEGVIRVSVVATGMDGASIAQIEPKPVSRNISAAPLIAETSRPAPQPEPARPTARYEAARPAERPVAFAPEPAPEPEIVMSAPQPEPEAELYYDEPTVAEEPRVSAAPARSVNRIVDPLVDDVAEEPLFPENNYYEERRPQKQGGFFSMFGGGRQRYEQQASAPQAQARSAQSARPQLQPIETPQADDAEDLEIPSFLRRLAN
protocol-notes: co-sedimentation; low speed co-pelleting (higher order structures): 4 µM FzlA variant ± 2 µM FtsZ, 50 mM MES pH 6.5, 50 mM KCl, 2.5 mM MgCl2, 2 mM GTP, 16 000 x g 15 min room temperature
conditions: both partners purified
Catalogue of binders with associated fold change of FzlA in pellet (with FtsZ vs. alone), low speed
All answers are understood in fold, so give the number only.

[ask] Name the reported fold change of FzlA in pellet (with FtsZ vs. alone), low speed value associated with the binder FzlA^UN1 (P131A) (natural protein, Caulobacter crescentus, FzlA, Caulobacter crescentus, with P131A; also called unknown nonessential activity; source: E. coli Rosetta (DE3) pLysS, purified (HisTrap, His6-SUMO cleaved)) MSVERTLHHFPLDPASRQVRLALGEKRLPFVEMQVRYWEMPPEFTSLNPSGMPPVLVETKHQRNLVICETRAILEHIEETETEPPLLGRDPAERAEARRLLQWFDRKFDNEVNGFLLHEKMEKRLLRMGAADLAALRQGREALRMHLGYIESLLQTRDWLAGRRMSLADFAAAAHLSVIDYFGDVPWKDFQAAKTWYMKLKSRPCFRPILADRWPGLAPAAHYDDLDF
[reply] 9.86

[ask] Please answer likewise for FzlA^UE2 (D227K) (natural protein, Caulobacter crescentus, FzlA, Caulobacter crescentus, with D227K; also called unknown essential activity; source: E. coli Rosetta (DE3) pLysS, purified (HisTrap, His6-SUMO cleaved)) MSVERTLHHFPLDPASRQVRLALGEKRLPFVEMQVRYWEMPPEFTSLNPSGMPPVLVETKHQRNLVICETRAILEHIEETETEPPLLGRDPAERAEARRLLQWFDRKFDNEVNGFLLHEKMEKRLLRMGAPDLAALRQGREALRMHLGYIESLLQTRDWLAGRRMSLADFAAAAHLSVIDYFGDVPWKDFQAAKTWYMKLKSRPCFRPILADRWPGLAPAAHYDDLKF
[reply] 12.3
